# CONDITION SUMMARY: 333.15 K; 101.33 kPa; Liquid; Falling or rolling sphere viscometry
Decision: viscosity compared against 2 mPa·s; not below it gives True, below it gives False.

COMPOUND: CCCCCCCCCCCCCC(=O)OC [methyl tetradecanoate]
CLASS LABEL: False

COMPOUND: CC/C=C\C/C=C\C/C=C\CCCCCCCC(=O)OC [methyl (Z,Z,Z)-9,12,15-octadecatrienoate]
CLASS LABEL: False

COMPOUND: CCCCC/C=C\C/C=C\CCCCCCCC(=O)OC [methyl (Z,Z)-9,12-octadecadienate]
CLASS LABEL: True

COMPOUND: CCCCCCCCCCCCCCCC(=O)OC [methyl hexadecanoate]
CLASS LABEL: True

COMPOUND: CCCCCCCCCCCC(=O)OC [methyl dodecanoate]
CLASS LABEL: False

Lab note: next compound to report on.
Is the recorded value of viscosity equal to or greater than 2 mPa·s for this compound? CCCCCCCC/C=C\CCCCCCCC(=O)OC [methyl cis-9-octadecenoate]
True

FYI, the data here is from the NIST ThermoML archive (doi:10.1021/je600552b).
